Target: UniProt Q93009
Sequence (Q93009 whole entry): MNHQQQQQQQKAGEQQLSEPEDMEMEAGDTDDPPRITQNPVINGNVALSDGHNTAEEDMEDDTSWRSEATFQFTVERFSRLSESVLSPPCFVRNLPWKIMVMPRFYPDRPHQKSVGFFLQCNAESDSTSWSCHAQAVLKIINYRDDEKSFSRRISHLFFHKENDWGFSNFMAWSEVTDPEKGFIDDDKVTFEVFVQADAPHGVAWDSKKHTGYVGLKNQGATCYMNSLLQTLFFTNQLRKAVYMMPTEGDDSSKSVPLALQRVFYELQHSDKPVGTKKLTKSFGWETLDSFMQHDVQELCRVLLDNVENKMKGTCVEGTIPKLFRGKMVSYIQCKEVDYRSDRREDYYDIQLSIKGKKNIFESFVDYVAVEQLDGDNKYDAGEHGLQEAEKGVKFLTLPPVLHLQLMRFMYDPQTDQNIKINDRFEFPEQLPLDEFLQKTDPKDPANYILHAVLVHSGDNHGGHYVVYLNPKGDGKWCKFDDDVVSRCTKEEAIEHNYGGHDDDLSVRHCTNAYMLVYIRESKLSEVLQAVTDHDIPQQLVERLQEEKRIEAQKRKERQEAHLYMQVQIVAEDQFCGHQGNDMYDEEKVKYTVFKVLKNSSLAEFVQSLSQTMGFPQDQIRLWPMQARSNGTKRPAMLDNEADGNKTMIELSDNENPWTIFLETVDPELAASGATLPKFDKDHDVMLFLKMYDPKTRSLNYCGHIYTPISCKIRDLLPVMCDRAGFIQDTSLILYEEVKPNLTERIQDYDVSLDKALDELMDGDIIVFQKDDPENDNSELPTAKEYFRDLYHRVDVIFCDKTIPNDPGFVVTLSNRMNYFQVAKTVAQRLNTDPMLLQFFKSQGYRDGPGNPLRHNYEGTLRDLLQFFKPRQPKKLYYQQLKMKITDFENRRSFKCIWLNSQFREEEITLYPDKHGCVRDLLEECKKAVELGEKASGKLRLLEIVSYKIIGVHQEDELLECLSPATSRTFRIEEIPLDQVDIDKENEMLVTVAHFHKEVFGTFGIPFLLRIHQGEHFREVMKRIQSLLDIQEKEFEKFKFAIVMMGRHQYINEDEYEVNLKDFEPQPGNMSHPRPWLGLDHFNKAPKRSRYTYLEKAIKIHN
Test: Enzymatic assay to determine IC50 of USP7 inhibitors (Ubiquitin-Rhodamine 110 cleavage)
Format: biochemical
Settings: at 1 μM of the test compound; given where IC50 not determined yet; read-out: percent value of inhibition of USP7 activity
Counter-ions that a name gives are not always drawn.
Measure: inhibition at 1 µM

| Compound | Measure | Experimental Value |
| --- | --- | --- |
| Cc1ccnc(-c2ccnc3cc(CN4C(=O)C5C(C4=O)C5(C)C)sc23)c1C(=O)N1CCC(F)(F)C1 (stereo not drawn) [Example 49, hydrochloride] | inhibition at 1 µM | < 20% |
| Cc1cc(C(F)(F)F)nc(-c2ccnc3cc(CN4C(=O)C5C(C4=O)C5(C)C)sc23)c1CC1NC(=O)CNC1=O (stereo not drawn) [Example 37, hydrochloride] | inhibition at 1 µM | < 20% |
| Cc1cc(C(F)(F)F)nc(-c2ccnc3cc(CN4C(=O)C5C(C4=O)C5(C)C)sc23)c1CN1CCN(C)CC1=O (stereo not drawn) [Example 41, dihydrochloride] | inhibition at 1 µM | < 20% |
| Cc1nc2c(-c3cc(Cl)cc(C)c3O[C@H]3CCCNC3)ccnc2[nH]1 [Example 67, hydrochloride] | inhibition at 1 µM | < 20% |
| Cc1cc(Cl)cc(-c2ccnc3nc(CN4C(=O)C5C(C4=O)C5(C)C)sc23)c1O[C@H]1CCCNC1 (stereo partly drawn) [Example 151, dihydrochloride] | inhibition at 1 µM | < 20% |
| Cc1cc(Cl)cc(-c2ccnc3c2nc(C)n3C)c1O[C@H]1CCCNC1 [Example 68, hydrochloride] | inhibition at 1 µM | < 20% |
| CC1(C)C2C(=O)N(Cc3cc4nccc(-c5cc(C(F)(F)F)cnc5CC5NCCNC5=O)c4s3)C(=O)C21 (stereo not drawn) [Example 166, hydrochloride] | inhibition at 1 µM | < 20% |
| Cc1cc(Cl)cc(-c2ccnc3nc(C)n(C)c23)c1O[C@H]1CCCNC1 [Example 69, hydrochloride] | inhibition at 1 µM | < 20% |
| Cc1cc(C(F)(F)F)nc(-c2ccnc3cc(CN4C(=O)C5C(C4=O)C5(C)C)sc23)c1CN1CCOCC1=O (stereo not drawn) [Example 38, hydrochloride] | inhibition at 1 µM | < 20% |
| Cc1ccnc(-c2ccnc3cc(CN4C(=O)C5C(C4=O)C5(C)C)sc23)c1CN1CCNCC1 (stereo not drawn) [Example 46, hydrochloride] | inhibition at 1 µM | < 20% |
| Cc1cc(C#N)nc(-c2ccnc3cc(CN4C(=O)C5C(C4=O)C5(C)C)sc23)c1C(=O)N1CC(N(C)C)C1 (stereo not drawn) | inhibition at 1 µM | 50 to 70% |
| Cc1cc(-c2ccnc3cc(CN4C(=O)C5C(C4=O)C5(C)C)sc23)c(O[C@H]2CCCNC2)cn1 (stereo partly drawn) [Example 119, 2,2,2-trifluoroacetate] | inhibition at 1 µM | < 20% |
| Cc1cc(C#N)nc(-c2ccnc3cc(CN4C(=O)C5C(C4=O)C5(C)C)sc23)c1C(=O)NC1CC(F)(F)C1 (stereo not drawn) [Example 57, hydrochloride] | inhibition at 1 µM | < 20% |
| Cc1ccnc(-c2ccnc3cc(CN4C(=O)C5C(C4=O)C5(C)C)sc23)c1C(=O)N1CCOCC1 (stereo not drawn) [Example 48, hydrochloride] | inhibition at 1 µM | < 20% |
| Cc1cc(C(F)(F)F)nc(-c2ccnc3cc(CN4C(=O)C5C(C4=O)C5(C)C)sc23)c1C(=O)N1CC[C@H](C(C)N)C1 (stereo partly drawn) [Example 138, trihydrochloride] | inhibition at 1 µM | 50 to 70% |
| Cc1ccnc(-c2ccnc3cc(CN4C(=O)C5C(C4=O)C5(C)C)sc23)c1C(=O)N1CC(F)(F)C1 (stereo not drawn) [Example 50, hydrochloride] | inhibition at 1 µM | < 20% |
| CC1(C)C2C(=O)N(Cc3cc4nccc(-c5cc(F)cnc5O[C@@H]5CCNC5)c4s3)C(=O)C21 (stereo partly drawn) [Example 158, hydrochloride] | inhibition at 1 µM | < 20% |
| Cc1c(N)cc(-c2ccnc3cc(CN4C(=O)C5C(C4=O)C5(C)C)sc23)n1C[C@@H]1CNCCO1 (stereo partly drawn) [Example 176, hydrochloride] | inhibition at 1 µM | < 20% |

Numbers sourced from patent US12404279B2.
